Tested on: MCF7 breast
Assay explanation: NCI tumour cell line growth inhibition, 48 h
Outcome measure: TGI

Here are 2 compounds together with their reported answers.
// query State its TGI on MCF7 breast: N#CC(C#N)=C1Nc2ccccc2S1
// result > 100 µM

// query State its TGI on MCF7 breast: CCOCC(=O)N[C@H]1CCc2cc(OC)c(OC)c(OC)c2-c2ccc(OC)c(=O)cc21
// result > 100 µM

Consider the record given below.
// query State its TGI on MCF7 breast: CC(=O)N(C(C)=O)n1c(Cc2ccc(Cl)cc2)n[nH]c1=O
// result > 100 µM

* * *

System: SK-MEL-2 melanoma
Assay explanation: NCI tumour cell line growth inhibition, 48 h
Outcome measure: TGI

Here are 10 compounds together with their reported answers.
// query Bench note: what TGI did c1nc(N2CC2)c2cnn(C3CCCCO3)c2n1 (stereo not drawn) show?
// result > 100 µM

// query Bench note: what TGI did CCOC1Oc2ccc(C)cc2C(=O)/C1=C\Nc1ccc(C(N)=O)cc1 (stereo not drawn) show?
// result > 100 µM

// query Bench note: what TGI did CC(C)(C)c1cc(CCC(=O)Nc2ccc(Cl)cc2)nc(NC#N)n1 show?
// result > 100 µM

// query Bench note: what TGI did O=C(CCN(C(=O)O)S(=O)(=O)c1ccc(NC(=O)c2ccccc2)cc1)NC1CCCCC1 show?
// result > 100 µM

// query Bench note: what TGI did COC(=O)CC(c1cn(S(=O)(=O)c2ccc(C)cc2)c2ccccc12)C1C[C@@H](C(=O)OC)N(C(=O)OC(C)(C)C)C1=O (stereo partly drawn) show?
// result > 100 µM

// query Bench note: what TGI did CCN(CC)C(c1ccc(N(C)C)cc1)C(c1ccc(N(C)C)cc1)N(CC)CC (stereo not drawn) show?
// result > 73 µM

// query Bench note: what TGI did N#CC12CNCC1CN=N2 (stereo not drawn) show?
// result > 100 µM

// query Bench note: what TGI did O=C(N/N=C/C=C/c1ccccc1)[C@H](O)[C@@H](O)C(=O)N/N=C/C=C/c1ccccc1 show?
// result > 100 µM

// query Bench note: what TGI did CS(=O)(=O)CCNCc1ccc(-c2ccc3ncnc(Nc4ccc(OCc5ccccc5)cc4)c3c2)o1 show?
// result 10.7 µM

// query Bench note: what TGI did CC1(C)C2CCC(CN)(C2)C1N (stereo not drawn) show?
// result > 100 µM

Continuing:
// query Bench note: what TGI did N#CC(C#N)=C1Nc2ccccc2S1 show?
// result 56.2 µM

// query Bench note: what TGI did COC(=O)c1cc(C)ccc1C1CN=NC12Cc1ccc(C)cc1C2=O (stereo not drawn) show?
// result > 100 µM

// query Bench note: what TGI did COC(=O)C1=C(O)C(C(=O)OC)[C@]2(O)[C@H](C(=O)OC)[C@H]1C[C@@H](c1ccc(OC)c(OC)c1)[C@H]2C(=O)OC (stereo partly drawn) show?
// result 99.4 µM

// query Bench note: what TGI did O=C1CCC2(c3ccccc3)Nc3ccncc3N12 (stereo not drawn) show?
// result > 10 µM

// query Bench note: what TGI did O=C1N[C@H]2c3c(Cl)sc(Cl)c3[C@@H](O)[C@H]2O1 show?
// result > 100 µM

// query Bench note: what TGI did O=C1c2[nH]c3ccc(Br)cc3c2CCN1Cc1ccc(Cl)cc1 show?
// result 47.4 µM

// query Bench note: what TGI did CC(C)(C)OC(=O)CN1C(=O)CC1CC(=O)c1ccccc1 (stereo not drawn) show?
// result 32.2 µM

// query Bench note: what TGI did CCCCCCCCCCCCN(CC(O)C(O)C(OC1OC(CO)C(O)C(O)C1O)C(O)CO)C(=O)CCCCCCCCCCC (stereo not drawn) show?
// result 58.8 µM

// query Bench note: what TGI did O=C(Nc1ccncc1)C(=O)c1cn(S(=O)(=O)c2cccc(F)c2)c2ccccc12 show?
// result > 100 µM

// query Bench note: what TGI did CN(CCC(=O)O)C1=Nc2ccc(Cl)cc2C(c2ccccc2)=[N+]([O-])C1 show?
// result > 100 µM

// query Bench note: what TGI did CC(SC(=S)N1CCOCC1)c1cc2oc(=O)n(C)c2cc1Cl (stereo not drawn) show?
// result > 100 µM

// query Bench note: what TGI did COc1ccc(CC2CCc3nc(N)nc(N)c3C2)cc1OC (stereo not drawn) show?
// result > 91.6 µM

// query Bench note: what TGI did COc1cc[nH]c1/C=C1\C(=O)Nc2ccc(F)c(C#CC3(O)CCNCC3)c21 show?
// result 0.464 µM

// query Bench note: what TGI did O=C1c2ccccc2C(=O)c2c1cc(S(=O)(=O)O)c(O)c2O show?
// result > 100 µM

// query Bench note: what TGI did O=C1c2cccc([N+](=O)[O-])c2C(=O)N1c1ncn[nH]1 show?
// result > 100 µM

// query Bench note: what TGI did CCCCCCCCn1ccc2cc(NC(=O)Cn3cc(CN4CCCC4)nn3)ccc21 show?
// result 3.66 µM

// query Bench note: what TGI did Cc1c(C)c(C)n(C2OC(CO)C(O)C(O)C2O)c(=S)c1C#N (stereo not drawn) show?
// result > 100 µM

// query Bench note: what TGI did OC1(c2ccccc2)C2CCN(CC2)C1CN1CCOCC1 (stereo not drawn) show?
// result > 100 µM

meta.source: PubChem BioAssay (NCI)
